# System: Streptococcus pneumoniae
# ASSAY PROTOCOL: The compound was tested in vitro for antibacterial activity against constitutively erythromycin resistant Streptococcus pneumoniae 030PW23c.
# Assay type: functional
REPORTED METRIC: MIC (µg/mL)
One number for each entry, in µg/mL.

[[record]]
molecule = "CC[C@H]1OC(=O)[C@H](C)C(=O)[C@H](C)[C@@H](O[C@@H]2O[C@H](C)C[C@H](N(C)C)[C@H]2O)[C@](C)(OC)C[C@@H](C)C(=O)[C@H](C)[C@H]2N(CCCCn3ccc4ccccc43)C(=O)O[C@]12C"
result_number = 2.5


Input line: For the molecule CC[C@H]1OC(=O)[C@H](C)C(=O)[C@H](C)[C@@H](O[C@@H]2O[C@H](C)C[C@H](N(C)C)[C@H]2O)[C@](C)(OC)C[C@@H](C)C(=O)[C@H](C)[C@H]2N(CCCCn3cnc(-c4cccnc4)c3)C(=O)O[C@]12C [TELITHROMYCIN] , what MIC is on record?
Output line: 0.08

###

# System: Streptococcus pneumoniae
# ASSAY PROTOCOL: The compound was tested in vitro for antibacterial activity against constitutively erythromycin resistant Streptococcus pneumoniae 030PW23c.
# Type: functional
What MIC was measured for each of the following?
In your response, the unit should come after the numeric value.

Recorded results for 2 compounds are shown here.
[[record]]
test_smiles = "CC[C@H]1OC(=O)[C@H](C)C(=O)[C@H](C)[C@@H](O[C@@H]2O[C@H](C)C[C@H](N(C)C)[C@H]2O)[C@](C)(OC)C[C@@H](C)C(=O)[C@H](C)[C@H]2N(CCCCn3cnc(-c4ccccc4)n3)C(=O)O[C@]12C"
result = "1.2 µg/mL"

[[record]]
test_smiles = "CC[C@H]1OC(=O)[C@H](C)C(=O)[C@H](C)[C@@H](O[C@@H]2O[C@H](C)C[C@H](N(C)C)[C@H]2O)[C@](C)(OC)C[C@@H](C)C(=O)[C@H](C)[C@H]2N(CCCCn3nnnc3-c3ccccc3)C(=O)O[C@]12C"
result = "0.6 µg/mL"


Now for a further compound.
Input line: I'd like to know its MIC. The compound in question is CC[C@H]1OC(=O)[C@H](C)C(=O)[C@H](C)[C@@H](O[C@@H]2O[C@H](C)C[C@H](N(C)C)[C@H]2O)[C@](C)(OC)C[C@@H](C)C(=O)[C@H](C)[C@H]2N(CCCCn3cnc(-c4ccccc4)c3)C(=O)O[C@]12C
Output line: 20 µg/mL

###

# System: Escherichia coli
# ASSAY PROTOCOL: The compound was tested in vitro for antibacterial activity against Escherichia coli 250 UCS.
# Type: functional
Can you tell me MIC for the items I'm about to list?

Record MIC for all entries; do not skip any.
1. CC[C@H]1OC(=O)[C@H](C)C(=O)[C@H](C)[C@@H](O[C@@H]2O[C@H](C)C[C@H](N(C)C)[C@H]2O)[C@](C)(OC)C[C@@H](C)C(=O)[C@H](C)[C@H]2N(CCCCn3cnc(-c4ccccc4)c3)C(=O)O[C@]12C
2. CC[C@H]1OC(=O)[C@H](C)C(=O)[C@H](C)[C@@H](O[C@@H]2O[C@H](C)C[C@H](N(C)C)[C@H]2O)[C@](C)(OC)C[C@@H](C)C(=O)[C@H](C)[C@H]2N(CCCCn3nnnc3-c3ccccc3)C(=O)O[C@]12C
3. CC[C@H]1OC(=O)[C@H](C)C(=O)[C@H](C)[C@@H](O[C@@H]2O[C@H](C)C[C@H](N(C)C)[C@H]2O)[C@](C)(OC)C[C@@H](C)C(=O)[C@H](C)[C@H]2N(CCCCn3ccc4ccccc43)C(=O)O[C@]12C
4. CC[C@H]1OC(=O)[C@H](C)C(=O)[C@H](C)[C@@H](O[C@@H]2O[C@H](C)C[C@H](N(C)C)[C@H]2O)[C@](C)(OC)C[C@@H](C)C(=O)[C@H](C)[C@H]2N(CCCCn3cnc(-c4cccnc4)c3)C(=O)O[C@]12C [TELITHROMYCIN]
5. CC[C@H]1OC(=O)[C@H](C)C(=O)[C@H](C)[C@@H](O[C@@H]2O[C@H](C)C[C@H](N(C)C)[C@H]2O)[C@](C)(OC)C[C@@H](C)C(=O)[C@H](C)[C@H]2N(CCCCn3cnc(-c4ccccc4)n3)C(=O)O[C@]12C

Output line:
1. 40 µg/mL
2. 20 µg/mL
3. 10 µg/mL
4. 10 µg/mL
5. 40 µg/mL
